- Assayed System: HLA-DR DRB1*0401 on fixed WT-51 cells (human)
- Test Name: competition
- Condition Context: modification not given
List of IC50 values.
Report only the number, with the unit µM understood.

QQIFNLFSTKDSSAA [21]    70
KDSSAAWDETLLDKF [24]    450

Attention now turns to another entry.
Entry YTELYQQLNDLEACV [29] , IC50 reported as 5
